Reported Ki on Human σ1 receptor (Homo sapiens) for assorted compounds, compiled from publications.

Some compounds with recorded Ki:
>>> test_result("CCN1CC2(CC2)OC2(CCCN(Cc3ccccc3)C2)C1 (stereo not drawn)")
"≥ 0.5 µM"
>>> test_result("CN(CCO)c1cc2nccc(C3CCCN(Cc4ccccc4)C3)n2n1 (stereo not drawn)")
"> 1 µM"
>>> test_result("CCN1C[C@]2(CCCN(CCC(C)C)CC2)O[C@@H](C)C1=O")
"≥ 0.5 µM"

Input: Find Ki (Human σ1 receptor (Homo sapiens)) for the entry CCC[C@@H](c1nc2ccc(Br)cc2c(=O)n1CC)N1CCNC[C@@H](O)C1
Output: > 1 µM

Input: Find Ki (Human σ1 receptor (Homo sapiens)) for the entry CCCN1CCCC(c2ccnc3c(-c4ccncc4)c(C)nn23)C1 (stereo not drawn)
Output: > 1 µM

Input: Find Ki (Human σ1 receptor (Homo sapiens)) for the entry CCCC(c1nc2ccc(Br)cc2c(=O)n1CC)N1CCCNCC1 (stereo not drawn)
Output: > 1 µM

Input: Find Ki (Human σ1 receptor (Homo sapiens)) for the entry CCN1CC2(CCCN(CCc3ccccc3)C2)OC2(CC2)C1=O (stereo not drawn)
Output: ≥ 0.5 µM

Input: Find Ki (Human σ1 receptor (Homo sapiens)) for the entry CCCC(c1nc2cc(C)c(Br)cc2c(=O)n1CC)N1CCCN(CC)CC1 (stereo not drawn)
Output: < 0.5 µM

Input: Find Ki (Human σ1 receptor (Homo sapiens)) for the entry Cc1nn2c(C3CCCN(Cc4ccccc4)C3)ccnc2c1Br (stereo not drawn)
Output: < 0.5 µM

---

Reported pKi on Human σ1 receptor (Homo sapiens, UniProt Q99720) for assorted molecules, compiled from publications.
Sequence (Q99720 whole entry): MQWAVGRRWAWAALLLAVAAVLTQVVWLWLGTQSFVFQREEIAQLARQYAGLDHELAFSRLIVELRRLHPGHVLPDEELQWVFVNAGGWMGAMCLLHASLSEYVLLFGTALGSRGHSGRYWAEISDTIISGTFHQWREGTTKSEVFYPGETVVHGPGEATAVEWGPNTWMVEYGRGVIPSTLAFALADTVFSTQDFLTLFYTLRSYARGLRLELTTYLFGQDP
pKi: −log10 of the molar value.

Some molecules with recorded pKi:
>>> test_result("Cc1nn2c(C3CCCN(Cc4ccccc4)C3)ccnc2c1CO (centres unmarked)")
"< 6.00"
>>> test_result("CCN1C[C@]2(CC[C@H](N(C)CC(C)C)CC2)OCC1=O")
"> 6.30"
>>> test_result("CCC[C@H](c1nc2cc(Cl)c(Cl)cc2c(=O)n1CC)N1CCN(C)C[C@@H](C)C1")
"> 6.30"
>>> test_result("CCCC(c1nc2ccc(Br)c(C)c2c(=O)n1CC)N1CCCN(C)CC1 (centres unmarked)")
"> 6.30"
>>> test_result("CCCC(c1nc2cnc(C(F)(F)F)cc2c(=O)n1CC)N1CCCN(C)CC1 (centres unmarked)")
"< 6.00"
>>> test_result("CCC[C@H](c1nc2ccc(Br)cc2c(=O)n1CC)N1CCCN[C@@H](C)C1")
"< 6.00"
>>> test_result("CCCC(c1nc2ccc(C)cc2c(=O)n1CC)N1CCCN(C)CC1 (centres unmarked)")
"< 6.00"
>>> test_result("O=C1N(c2ccccc2)CC2(CCCN(Cc3ccccc3)C2)OC12CC2 (centres unmarked)")
"≤ 6.30"
>>> test_result("CCC[C@H](c1nc2ccncc2c(=O)n1CC)N1CCCN(C)CC1")
"< 6.00"
>>> test_result("CCCC(c1nc2ccc(Br)cc2c(=O)n1CC(C)C)N1CCCN(CC)CC1 (centres unmarked)")
"> 6.30"

Lab note: next molecule to report on.
Input: Find pKi (Human σ1 receptor (Homo sapiens, UniProt Q99720)) for the entry CCCC(c1nc2cc(F)c(Br)cc2c(=O)n1CC)N1CCCN(C)CC1 (centres unmarked)
Output: > 6.30

---

Reported Ki on Human σ1 receptor (Homo sapiens, UniProt Q99720) for assorted molecules, compiled from publications.

Some molecules with recorded Ki:
>>> test_result("CCCC(c1nc2ccc(Br)c(F)c2c(=O)n1CC)N1CCCN(CC)CC1 (stereo not shown)")
"< 500 nM"
>>> test_result("CCC[C@H](c1nc2ccc(F)cc2c(=O)n1C)N1CCCN(C)CC1")
"< 500 nM"
>>> test_result("Cc1nn2c(CC3CCCN(Cc4ccc(Cl)cc4)C3)ccnc2c1CN(C)C (stereo not shown)")
"< 500 nM"
>>> test_result("CCN1C[C@@]2(CCCN(Cc3ccccc3)CC2)O[C@H](C)C1=O")
"≥ 500 nM"
>>> test_result("CCC[C@H](c1nc2ccc(Cl)cc2c(=O)n1CC)N1CCN(C)C[C@H](C)C1")
"500 to 1000 nM"

Input: Which measured Ki value corresponds to Cc1nn2c(C3CCCN(Cc4ccc(Cl)cc4)C3)ccnc2c1CNCc1ccn(C)n1 (stereo not shown) ?
Output: < 500 nM

Input: Which measured Ki value corresponds to CCC[C@H](c1nc2cc(Cl)c(Cl)cc2c(=O)n1CC)N1CCN(C)C[C@H](C)C1 ?
Output: < 500 nM

Input: Which measured Ki value corresponds to CCCC(c1nc2ccc(Br)cc2c(=O)n1CCC)N1CCCN(CC)CC1 (stereo not shown) ?
Output: < 500 nM

Input: Which measured Ki value corresponds to CCC[C@H](c1nc2ccc(F)cc2c(=O)n1CCC(C)C)N1CCCN(CC)CC1 ?
Output: < 500 nM

---

Reported Ki on Human σ1 receptor (Homo sapiens) for assorted compounds, compiled from publications.

>>> test_result("O=C(c1ccccc1)N1CC2(CC2)OC2(CCCN(CCc3ccccc3)C2)C1 (centres unmarked)")
"≥ 0.5 µM"
>>> test_result("CCC[C@@H](c1nc2ccc(Br)cc2c(=O)n1CC)N1CCN[C@H](C)CC1")
"> 1 µM"
>>> test_result("CCC[C@H](c1nc2c(F)cc(Br)cc2c(=O)n1CC)N1CCCN(C)CC1")
"0.5 to 1 µM"
>>> test_result("CCC[C@H](c1nc2cc(F)c(F)cc2c(=O)n1CC)N1CCN[C@H](C)CC1")
"0.5 to 1 µM"
>>> test_result("COc1ccc(CCNCc2c(C)nn3c(C4CCCN(Cc5ccc(Cl)cc5)C4)ccnc23)cc1 (centres unmarked)")
"0.5 to 1 µM"

Lab note: next compound to report on.
Input: Which measured Ki value corresponds to Cc1nn2c(C3CCCN(Cc4ccc(Cl)cc4)C3)ccnc2c1-c1ccc(CO)nc1 (centres unmarked) ?
Output: > 1 µM

---

Reported Ki on Human σ1 receptor (Homo sapiens, UniProt Q99720) for assorted compounds, compiled from publications.

>>> test_result("CCC[C@H](c1nc2cc(F)c(Br)cc2c(=O)n1CC)N1CCCN(C)CC1")
"> 1000 nM"
>>> test_result("CCN1C[C@@]2(CCCN(CCC(C)C)CC2)O[C@@H](C)C1=O")
"≥ 500 nM"
>>> test_result("CCCC(c1nc2cc(F)c(Br)cc2c(=O)n1CCC)N1CCCNCC1 (stereo not drawn)")
"> 1000 nM"
>>> test_result("Cc1nn2c([C@H]3CCCN(Cc4ccc(Cl)cc4)C3)ccnc2c1CNC[C@@H]1CCOC(C)(C)C1")
"< 500 nM"
>>> test_result("CC(C)N1CC2(CN(CC(C)(C)C)C2)O[C@@H](C)C1=O")
"≥ 500 nM"

Lab note: next compound to report on.
Input: Find Ki (Human σ1 receptor (Homo sapiens, UniProt Q99720)) for the entry CCCC(c1nc2ccc(-c3ccccc3)cc2c(=O)n1CC)N1CCCN(C)CC1 (stereo not drawn)
Output: > 1000 nM

---

Reported Ki on Human σ1 receptor (Homo sapiens) for assorted molecules, compiled from publications.

Some molecules with recorded Ki:
>>> test_result("c1ccc(CN2CCCC(c3ccnc4ccnn34)C2)cc1 (stereo not drawn)")
"> 1 µM"
>>> test_result("CCC[C@H](c1nc2cc(F)c(OC)cc2c(=O)n1CC)N1CCNC[C@H](C)C1")
"> 1 µM"
>>> test_result("Cc1nn2c(C3CCCN(Cc4ccc(Cl)cc4)C3)ccnc2c1CN1CCOCC1 (stereo not drawn)")
"0.5 to 1 µM"
>>> test_result("c1ccc(CN2CCCC(c3ccnc4c(-c5ccccc5)cnn34)C2)cc1 (stereo not drawn)")
"0.5 to 1 µM"
>>> test_result("CN[C@H]1CCN(c2cc3nccc([C@@H]4CCCN(Cc5ccccc5)C4)n3n2)C1")
"> 1 µM"
>>> test_result("CCN1C[C@]2(CC[C@H](N(C)CCC(C)C)CC2)OC(C)(C)C1=O")
"< 0.5 µM"
>>> test_result("CCCC(c1nc2cc(F)c(F)cc2c(=O)n1CC)N1CCCN(CC)CC1 (stereo not drawn)")
"< 0.5 µM"
>>> test_result("CCCC(c1nc2cc(F)c(Cl)cc2c(=O)n1CC)N1CCCN(C)CC1 (stereo not drawn)")
"< 0.5 µM"

Lab note: next molecule to report on.
Input: Find Ki (Human σ1 receptor (Homo sapiens)) for the entry CC(C)CCN1CC2(C1)CN(C(C)C)C(=O)[C@@H](C)O2
Output: ≥ 0.5 µM

---

Reported Ki on UniProt Q99720 for assorted compounds, compiled from publications.

Some compounds with recorded Ki:
>>> test_result("CCC[C@H](c1nc2ccc(Cl)cc2c(=O)n1CCC)N1CCCN(C)CC1")
"< 500 nM"
>>> test_result("CCC[C@H](c1nc2ccc(Br)cc2c(=O)n1CCC)N1CCNC[C@@H](C)C1")
"> 1000 nM"
>>> test_result("CCN1C[C@@]2(CCCN(Cc3ccccc3)CC2)O[C@@H](C)C1=O")
"≥ 500 nM"
>>> test_result("Cc1ccc(CN2CCCC(c3ccnc4c(-c5ccncc5)c(C)nn34)C2)cc1 (stereo not drawn)")
"500 to 1000 nM"
>>> test_result("CCC[C@H](c1nc2ccc(Br)cc2c(=O)n1CC)N1CCNC[C@H](O)C1")
"> 1000 nM"
>>> test_result("Cc1nn2c([C@@H]3CCCN([C@H](CO)c4ccccc4)C3)ccnc2c1-c1ccncc1")
"> 1000 nM"

Input: Find Ki (UniProt Q99720) for the entry CCN1C[C@H](C2CCN(Cc3ccc(C#N)cc3)CC2)O[C@@H](C)C1=O
Output: ≥ 500 nM
